target: Kappa-type opioid receptor (Homo sapiens); assay: Displacement of [3H]U-69593 from cloned human kappa opioid receptor expressed in CHO cells
Sequence (P41145 whole entry): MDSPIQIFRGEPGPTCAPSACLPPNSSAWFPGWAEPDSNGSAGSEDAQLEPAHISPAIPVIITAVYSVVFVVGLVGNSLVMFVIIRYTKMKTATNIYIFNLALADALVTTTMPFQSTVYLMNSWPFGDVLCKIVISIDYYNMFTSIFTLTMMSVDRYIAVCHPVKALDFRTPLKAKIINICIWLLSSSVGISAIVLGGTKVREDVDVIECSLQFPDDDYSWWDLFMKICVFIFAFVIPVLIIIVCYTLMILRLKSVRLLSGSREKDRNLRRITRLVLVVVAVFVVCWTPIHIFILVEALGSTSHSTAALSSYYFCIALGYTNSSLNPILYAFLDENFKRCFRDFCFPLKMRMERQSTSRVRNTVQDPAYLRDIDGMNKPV
Reported pIC50 values are given for each entry in this list.
Reminder that pIC50 means the negative base-10 logarithm of the concentration expressed in mol/L.

Sample records with pIC50:
O=C(NCCCN1CCC2(CCc3ccccc32)CC1)c1ccccc1Oc1ccccc1; 5.02
O=C(NCCCN1CCC2(CCc3ccccc32)CC1)[C@H]1CCCN1Cc1ccccc1; 6.02
O=C(NCCCN1CCC2(CCc3ccccc32)CC1)c1ccccc1OCc1ccccc1; 5.64

## Task # lookup: Kappa-type opioid receptor (Homo sapiens) pIC50, key = `O=C(NCCCN1CCC2(CC1)OCc1ccccc12)[C@H]1CCCN1Cc1ccccc1`
## Result 5.60

## Task Give pIC50; test system Kappa-type opioid receptor (Homo sapiens); compound `O=C(NCCCN1CCC2(CCc3ccccc32)CC1)c1ccccc1-c1ccccc1`
## Result 5.43

## Task Lab note: record pIC50 of `O=C(NCCCN1CCC2(CCc3ccccc32)CC1)[C@@H](O)Cc1ccccc1` tested on Kappa-type opioid receptor (Homo sapiens).
## Result 5.16

## Task State recorded pIC50 with Kappa-type opioid receptor (Homo sapiens), entry `O=C(NCCCN1CCC2(CCc3ccccc32)CC1)[C@@H]1CCCN1Cc1ccccc1` , no comment.
## Result 5.10
